target: Alpha-2A adrenergic receptor (Homo sapiens, UniProt P08913)
Sequence (P08913 whole entry): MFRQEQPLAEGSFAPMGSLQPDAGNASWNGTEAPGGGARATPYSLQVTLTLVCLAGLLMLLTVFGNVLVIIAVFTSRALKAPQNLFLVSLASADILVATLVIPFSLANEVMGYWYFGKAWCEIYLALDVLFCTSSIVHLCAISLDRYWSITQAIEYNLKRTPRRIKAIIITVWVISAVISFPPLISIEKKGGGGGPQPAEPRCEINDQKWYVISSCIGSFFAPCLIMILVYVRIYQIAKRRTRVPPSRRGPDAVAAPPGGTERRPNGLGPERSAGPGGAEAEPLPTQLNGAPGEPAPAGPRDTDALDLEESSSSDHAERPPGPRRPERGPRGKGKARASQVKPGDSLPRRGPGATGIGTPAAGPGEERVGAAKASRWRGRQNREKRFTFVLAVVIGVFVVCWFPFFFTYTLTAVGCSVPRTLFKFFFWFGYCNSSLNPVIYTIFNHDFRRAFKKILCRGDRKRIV
Assay Metric: pIC50
Interpret pIC50 as the negative base-10 log of the concentration measured in mol/L.

Form: item Cc1ccc(OCC(O)C(C)NC(C)C)c2c1CCC2 (stereo unspecified) ; test system Alpha-2A adrenergic receptor (Homo sapiens, UniProt P08913); pIC50: 9.30

---

experiment: Binding affinity to L-type calcium channel verapamil binding site (unknown origin) by radioligand displacement assay; design: species or system Homo sapiens
Assay Metric: pIC50
Just so you know, pIC50 here is -log10 of the concentration in molar units; reply with that number alone.

// pIC50 value for COc1ccc(CCN(C)CCCC(C#N)(c2cc(OC)c(OC)c(OC)c2)C(C)C)cc1OC (stereo unspecified) [GALLOPAMIL] : 7.70

---

assay: Binding affinity to PCP receptor (unknown origin) by radioligand displacement assay; parameters: species or system Homo sapiens
Structures can show the parent of a compound that is named as a salt.
Assay Metric: IC50 (nM)
Reply numerically in nM, unit not repeated.

Recorded result, C[C@]12N[C@H](Cc3ccccc31)c1ccccc12 [DIZOCILPINE MALEATE] , IC50: 6

---

molecular target: Sigma non-opioid intracellular receptor 1 (Homo sapiens, UniProt Q99720)
Sequence (Q99720 whole entry): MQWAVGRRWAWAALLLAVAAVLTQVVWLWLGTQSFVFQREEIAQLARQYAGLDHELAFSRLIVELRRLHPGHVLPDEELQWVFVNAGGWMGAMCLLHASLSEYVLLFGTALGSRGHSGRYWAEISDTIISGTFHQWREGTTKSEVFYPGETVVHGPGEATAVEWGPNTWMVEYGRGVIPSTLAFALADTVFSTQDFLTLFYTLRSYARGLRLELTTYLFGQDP
Assay Metric: Ki
Remember to quote the unit after the number.

Measured on Sigma non-opioid intracellular receptor 1 (Homo sapiens, UniProt Q99720), COc1cc2c(cc1OC)C(=O)C(CC1CCN(Cc3ccccc3)CC1)C2 (stereo unspecified) has a documented Ki of 14.6 nM

# credit: ChEMBL document CHEMBL2390917
